measured_target: α1A adrenoceptor (prostate) (Rattus norvegicus)
Construct: from tissue; host or cells: isolated prostate tissue
Sequence (P43140 whole entry): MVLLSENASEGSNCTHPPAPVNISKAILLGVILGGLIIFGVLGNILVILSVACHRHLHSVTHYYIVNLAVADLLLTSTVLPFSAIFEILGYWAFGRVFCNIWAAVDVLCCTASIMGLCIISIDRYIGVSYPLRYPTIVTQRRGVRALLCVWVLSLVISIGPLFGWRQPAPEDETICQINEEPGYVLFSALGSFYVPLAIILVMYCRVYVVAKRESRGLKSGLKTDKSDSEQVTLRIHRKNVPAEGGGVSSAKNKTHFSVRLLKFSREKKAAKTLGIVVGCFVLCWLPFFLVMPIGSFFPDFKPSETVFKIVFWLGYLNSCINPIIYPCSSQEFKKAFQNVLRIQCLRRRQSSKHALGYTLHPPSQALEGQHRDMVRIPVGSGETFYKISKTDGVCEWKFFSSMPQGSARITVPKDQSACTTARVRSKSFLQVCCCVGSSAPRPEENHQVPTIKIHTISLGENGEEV
method: In vitro functional assay, isolated prostate, phenylepinephrine contraction
Format: cell-based
recorded_conditions: functional, from pKB
Where a name gives a salt, the structure may show the parent alone.
One threshold, 1, splits the recorded Selectivity α1D/α1A values: lower ones are y, equal or higher ones are n.

Incoming: Would you kindly verify if Selectivity α1D/α1A of CC(C)Oc1ccc(O)cc1N1CCN(CCCN2C(=O)C3CC=CCC3C2=O)CC1.Cl (stereo not drawn) is strictly less than 1?
Outgoing: n

Incoming: Would you kindly verify if Selectivity α1D/α1A of CC(C)Oc1cc(N)ccc1N1CCN(CCCN2C(=O)C3CC=CCC3C2=O)CC1.Cl (stereo not drawn) is strictly less than 1?
Outgoing: n

Incoming: Would you kindly verify if Selectivity α1D/α1A of CCOc1ccccc1N1CCN(CCCN2C(=O)C3CC(O)C(O)CC3C2=O)CC1 (stereo not drawn) is strictly less than 1?
Outgoing: n

Incoming: Would you kindly verify if Selectivity α1D/α1A of CCOc1ccccc1[N+]1([O-])CC[N+]([O-])(CCCN2C(=O)C3CC=CCC3C2=O)CC1 (stereo not drawn) is strictly less than 1?
Outgoing: n

Incoming: Would you kindly verify if Selectivity α1D/α1A of Cl.O=C1C2CC=CCC2C(=O)N1CCCN1CCN(c2ccccc2OC2CCCC2)CC1 (stereo not drawn) is strictly less than 1?
Outgoing: y

Incoming: Would you kindly verify if Selectivity α1D/α1A of O=C1CCCC(=O)N1CCCN1CCN(c2ccccc2OCC(F)(F)F)CC1 is strictly less than 1?
Outgoing: y

Incoming: Would you kindly verify if Selectivity α1D/α1A of COc1ccccc1N1CCN(CC(O)CN2C(=O)C3CC=CCC3C2=O)CC1.Cl (stereo not drawn) is strictly less than 1?
Outgoing: y

Incoming: Would you kindly verify if Selectivity α1D/α1A of CC(C)Oc1ccccc1N1CCN(CCCN2C(=O)C3CC(O)C(O)CC3C2=O)CC1 (stereo not drawn) [Compound No. 23] is strictly less than 1?
Outgoing: n

Incoming: Would you kindly verify if Selectivity α1D/α1A of CC(C)Oc1ccccc1N1CCN(CC(O)CN2C(=O)C3CC=CCC3C2=O)CC1.Cl (stereo not drawn) is strictly less than 1?
Outgoing: n

Incoming: Would you kindly verify if Selectivity α1D/α1A of CC(C)Oc1ccccc1N1CCN(CCCN2C(=O)C3CC(O)C(O)CC3C2=O)CC1 (stereo not drawn) [Compound No. 13] is strictly less than 1?
Outgoing: y

Incoming: Would you kindly verify if Selectivity α1D/α1A of CCOc1ccccc1N1CCN(CCCN2C(=O)C3CCC(O)CC3C2=O)CC1.Cl (stereo not drawn) is strictly less than 1?
Outgoing: n

Incoming: Would you kindly verify if Selectivity α1D/α1A of CC(C)Oc1ccccc1N1CCN(CCCN2C(=O)C3CC4OC4CC3C2=O)CC1 (stereo not drawn) is strictly less than 1?
Outgoing: n

Incoming: Would you kindly verify if Selectivity α1D/α1A of CC(C)Oc1ccccc1N1CCN(CCCN2C(=O)C3CC(O)C(Cl)CC3C2=O)CC1.Cl (stereo not drawn) is strictly less than 1?
Outgoing: n

Incoming: Would you kindly verify if Selectivity α1D/α1A of CC(C)Oc1cc([N+](=O)[O-])ccc1N1CCN(CCCN2C(=O)C3CC=CCC3C2=O)CC1 (stereo not drawn) [Compound No. 25, hydrochloride] is strictly less than 1?
Outgoing: y

Incoming: Would you kindly verify if Selectivity α1D/α1A of CC(=O)OC1C=CCC2C(=O)N(CCCN3CCN(c4ccccc4OC(C)C)CC3)C(=O)C12 (stereo not drawn) [Compound No. 40, hydrochloride] is strictly less than 1?
Outgoing: n
